- protocol summary: Terminal half life in mouse at 10 mg/kg, iv administered as single dose
- Assay type: ADME, organism-based
- Set-up: dose 10 mg/kg, route intravenous
- test settings: in vivo, read-out: beta t1/2 (converted)
recorded metric: half-life (h)
All answers are understood in h, so give the number only.

Query: Answer with the recorded half-life for the compound listed here: Nc1c(-c2ccc([C@H]3CC[C@H](CC(=O)O)CC3)cc2)cnc2ccnn12
Response: 4.6

----------
- protocol summary: Terminal half life in rat at 5 mg/kg, po administered as single dose
- Type: ADME, organism-based
- Design: dose 5 mg/kg, route oral
- test settings: in vivo, read-out: beta t1/2 (converted)
recorded metric: half-life (h)
All answers are understood in h, so give the number only.

Query: Answer with the recorded half-life for the compound listed here: Nc1c(-c2ccc([C@H]3CC[C@H](CC(=O)O)CC3)cc2)cnc2ccnn12
Response: 5.6

----------
- protocol summary: Terminal half life in mouse at 10 mg/kg, po administered as single dose
- Assay type: ADME, organism-based
- Design: dose 10 mg/kg, route oral
- test settings: in vivo, read-out: beta t1/2 (converted)
recorded metric: half-life (h)
All answers are understood in h, so give the number only.

Query: Answer with the recorded half-life for the molecule listed here: Nc1c(-c2ccc([C@H]3CC[C@H](CC(=O)O)CC3)cc2)cnc2ccnn12
Response: 5.1

----------
- protocol summary: Cmax in mouse at 10 mg/kg, po administered as single dose
- Format: ADME, organism-based
- Design: dose 10 mg/kg, route oral
- test settings: in vivo
recorded metric: Cmax (ng/mL)
All answers are understood in ng/mL, so give the number only.

Query: Answer with the recorded Cmax for the compound listed here: Nc1c(-c2ccc([C@H]3CC[C@H](CC(=O)O)CC3)cc2)cnc2ccnn12
Response: 17400

----------
- protocol summary: Volume of distribution at steady state in rat at 5 mg/kg, iv administered as single dose
- Format: ADME, organism-based
- Design: dose 5 mg/kg, route intravenous
- test settings: in vivo, read-out: Vdss
recorded metric: Vd (L/kg)
All answers are understood in L/kg, so give the number only.

Query: Answer with the recorded Vd for the compound listed here: Nc1c(-c2ccc([C@H]3CC[C@H](CC(=O)O)CC3)cc2)cnc2ccnn12
Response: 0.3

----------
- protocol summary: Plasma clearance in mouse at 10 mg/kg, iv administered as single dose
- Format: ADME, organism-based
- Set-up: dose 10 mg/kg, route intravenous
recorded metric: clearance (mL/min/kg)
All answers are understood in mL/min/kg, so give the number only.

Query: Answer with the recorded clearance for the molecule listed here: Nc1c(-c2ccc([C@H]3CC[C@H](CC(=O)O)CC3)cc2)cnc2ccnn12
Response: 1.67

----------
- protocol summary: Plasma concentration in CD1 mouse postprandial hyperlipidemia model at 0.03 mg/kg, po administered as single dose 1 hr before oral corn oil bolus challenge and measured after 2 hrs
- Type: ADME, organism-based
- Parameters: dose 0.03 mg/kg, route oral
recorded metric: concentration at 2 h (ng/mL)
All answers are understood in ng/mL, so give the number only.

Query: Answer with the recorded concentration at 2 h for the molecule listed here: Nc1c(-c2ccc([C@H]3CC[C@H](CC(=O)O)CC3)cc2)cnc2ccnn12
Response: 33

----------
- protocol summary: Volume of distribution at steady state in mouse at 10 mg/kg, iv administered as single dose
- Assay type: ADME, organism-based
- Design: dose 10 mg/kg, route intravenous
- test settings: in vivo, read-out: Vdss
recorded metric: Vd (L/kg)
All answers are understood in L/kg, so give the number only.

Query: Answer with the recorded Vd for the compound listed here: Nc1c(-c2ccc([C@H]3CC[C@H](CC(=O)O)CC3)cc2)cnc2ccnn12
Response: 0.3

Where these numbers come from: ChEMBL document CHEMBL2163253
